Reference source: the supplement of paper PMC9732359

For each of the sequences below, state its protein stability index.
- assay text: protein stability index of a GFP-peptide fusion (yeast GPS) (PSI 1-4); higher = more stable; sorted into four equal gates, so the index is relative within each strain
- experimental setup: doa10∆
Answers are plain numbers.

Recorded protein stability index, per entry:
construct sequence: EDGRTLSDYNIQKESTL [RPS31]
protein stability index: 2.92
//
construct sequence: AETKSYDSRGVGEMKLL [YLR335W/NUP2]
protein stability index: 1.94
//
construct sequence: RYLTLLSNEFTATNSKG [ECM29]
protein stability index: 2.89
//
construct sequence: TGKIVDVVGTLSRNGKP [FAS1]
protein stability index: 3.33

Count: 4. Required value per item: protein stability index.
1. STGLKSASDALKGRVVE [RPS1A]
2. LPSEDSRAQILQIHSRK [RPT5]
3. NTAFGNSNPTSNVFGSN [YJL041W/NSP1]
4. LNVVMKNLERLRGEYND [SMC4]

1: 3.29; 2: 2.21; 3: 3.06; 4: 3.26

# lookup: protein stability index of GPAAAIEFEYDPWNKLK [RPB3]
3.04
